All figures here come from ChEMBL document CHEMBL1833887.

- procedure_details: Dissociation constant, pKa of the compound
- Type: physicochemical
Kindly supply the reported pKa values for the records listed here.

pKa in this record for N#Cc1ccc(Cc2ccc3c(NCCCNCc4ccco4)ccnc3c2)cc1 : 9.47

pKa in this record for c1ccc2c(-c3ccc4c(NCCCNCc5ccc6c(c5)OCO6)ccnc4c3)cccc2c1 : 9.47

pKa in this record for COc1ccc(F)cc1CNCCCNc1ccnc2cc(Oc3ccccc3)ccc12 : 9.28

pKa in this record for Fc1ccc(Cc2ccc3c(NCCCNCc4ccc5c(c4)OCO5)ccnc3c2)cc1 : 9.47

pKa in this record for COc1ccc(Oc2ccc3c(NCCCNCc4cc(F)ccc4OC)ccnc3c2)cc1 : 9.28

----------
- procedure_details: Solubility of the compound at pH 7.4 after 18 hrs by UV spectroscopic analysis
- Format: physicochemical
- experimental_conditions: buffer
parameter_measured: solubility at 18 h (µM)
Field: numeric (µM). Do not append units.

solubility at 18 h in this record for c1ccc(Cc2ccc3c(NCCCNCc4ccc5c(c4)OCO5)ccnc3c2)cc1 : 4.2

solubility at 18 h in this record for COc1ccccc1Oc1ccc2c(NCCCNCc3cccc(OC)c3O)ccnc2c1 : 14.5

solubility at 18 h in this record for CC(C)(C)c1ccc(Oc2ccc3c(NCCCNCc4ccco4)ccnc3c2)cc1 : 14.5

solubility at 18 h in this record for N#Cc1ccc(Cc2ccc3c(NCCCNCc4ccc5c(c4)OCO5)ccnc3c2)cc1 : 4.2

solubility at 18 h in this record for COc1ccc(F)cc1CNCCCNc1ccnc2cc(Oc3ccccc3OC)ccc12 : 14.5

solubility at 18 h in this record for COc1ccc(F)cc1CNCCCNc1ccnc2cc(C3CCCCC3)ccc12 : 4.2

solubility at 18 h in this record for COc1ccc(Oc2ccc3c(NCCCNCc4ccc5c(c4)OCO5)ccnc3c2)cc1 : 14.5

solubility at 18 h in this record for Fc1ccc(-c2ccc3c(NCCCNCc4ccc5c(c4)OCO5)ccnc3c2)cc1 : 32

solubility at 18 h in this record for Fc1ccc(Cc2ccc3c(NCCCNCc4ccco4)ccnc3c2)cc1 : 4.2

solubility at 18 h in this record for COc1ccc(F)cc1CNCCCNc1ccnc2cc(Oc3ccccc3)ccc12 : 14.5

solubility at 18 h in this record for CN(C)c1cccc(Oc2ccc3c(NCCCNCc4ccco4)ccnc3c2)c1 : 14.5

solubility at 18 h in this record for COc1ccc(F)cc1CNCCCNc1ccnc2cc(CCc3ccccc3)ccc12 : 4.2

solubility at 18 h in this record for c1cc(NCCCNCc2ccc3c(c2)OCO3)c2ccc(CC3CCCCC3)cc2n1 : 4.2

solubility at 18 h in this record for N#Cc1ccc(Cc2ccc3c(NCCCNCc4ccco4)ccnc3c2)cc1 : 4.2

solubility at 18 h in this record for COc1ccc(F)cc1CNCCCNc1ccnc2cc(Cc3cccc(C(F)(F)F)c3)ccc12 : 4.2

solubility at 18 h in this record for Fc1ccc(Cc2ccc3c(NCCCNCc4ccco4)ccnc3c2)c(Cl)c1 : 4.2

solubility at 18 h in this record for COc1ccc(F)cc1CNCCCNc1ccnc2cc(-c3ccc(F)cc3)ccc12 : 32

solubility at 18 h in this record for COc1ccc(-c2ccc3c(NCCCNCc4cc(F)ccc4OC)ccnc3c2)cc1 : 32

solubility at 18 h in this record for COc1cccc(CNCCCNc2ccnc3cc(Cc4ccc5c(c4)OCO5)ccc23)c1O : 32

solubility at 18 h in this record for c1cc(NCCCNCc2ccc3c(c2)OCO3)c2ccc(Cc3ccc4c(c3)OCO4)cc2n1 : 32

solubility at 18 h in this record for CC(C)CCc1ccc2c(NCCCNCc3ccco3)ccnc2c1 : 4.2

solubility at 18 h in this record for CN(C)c1cccc(Oc2ccc3c(NCCCNCc4ccc5c(c4)OCO5)ccnc3c2)c1 : 14.5

solubility at 18 h in this record for COc1cccc(CNCCCNc2ccnc3cc(Cc4ccccc4)ccc23)c1O : 4.2

solubility at 18 h in this record for COc1cccc(Oc2ccc3c(NCCCNCc4cc(F)ccc4OC)ccnc3c2)c1 : 14.5

solubility at 18 h in this record for COc1ccc(Oc2ccc3c(NCCCNCc4cc(F)ccc4OC)ccnc3c2)cc1 : 14.5

solubility at 18 h in this record for c1coc(CNCCCNc2ccnc3cc(CC4CCCCC4)ccc23)c1 : 4.2

solubility at 18 h in this record for COc1cccc(CNCCCNc2ccnc3cc(C4CCCCC4)ccc23)c1O : 4.2

solubility at 18 h in this record for COc1ccc(F)cc1CNCCCNc1ccnc2cc(CCC(C)C)ccc12 : 4.2

solubility at 18 h in this record for CC(C)Cc1ccc2c(NCCCNCc3ccco3)ccnc2c1 : 4.2

solubility at 18 h in this record for Fc1ccc(Cc2ccc3c(NCCCNCc4ccc5c(c4)OCO5)ccnc3c2)cc1 : 4.2

solubility at 18 h in this record for COc1ccc(F)cc1CNCCCNc1ccnc2cc(Cc3ccc(C#N)cc3)ccc12 : 4.2

solubility at 18 h in this record for COc1cccc(CNCCCNc2ccnc3cc(-c4ccc(F)cc4)ccc23)c1O : 32

solubility at 18 h in this record for CC(C)(C)c1ccc(Oc2ccc3c(NCCCNCc4ccc5c(c4)OCO5)ccnc3c2)cc1 : 14.5

solubility at 18 h in this record for c1cc(NCCCNCc2ccc3c(c2)OCO3)c2ccc(C3CCCCC3)cc2n1 : 4.2

solubility at 18 h in this record for c1ccc(CCc2ccc3c(NCCCNCc4ccco4)ccnc3c2)cc1 : 4.2

solubility at 18 h in this record for CC(C)(C)c1ccc(-c2ccc3c(NCCCNCc4ccc5c(c4)OCO5)ccnc3c2)cc1 : 32

solubility at 18 h in this record for c1ccc2c(-c3ccc4c(NCCCNCc5ccc6c(c5)OCO6)ccnc4c3)cccc2c1 : 32

solubility at 18 h in this record for COc1cccc(CNCCCNc2ccnc3cc(Oc4ccc(Cl)cc4)ccc23)c1O : 14.5

solubility at 18 h in this record for COc1cccc(CNCCCNc2ccnc3cc(Oc4ccccc4)ccc23)c1O : 14.5

solubility at 18 h in this record for CCC(CC)c1ccc2c(NCCCNCc3ccco3)ccnc2c1 : 4.2

solubility at 18 h in this record for COc1ccc(F)cc1CNCCCNc1ccnc2cc(-c3ccc(C(F)(F)F)cc3)ccc12 : 32

solubility at 18 h in this record for COc1cccc(CNCCCNc2ccnc3cc(-c4cccc5ccccc45)ccc23)c1O : 32
